Ref: ChEMBL document CHEMBL1131333

Target: Nitric oxide synthase 1 (Homo sapiens)
Test: Inhibitory activity evaluated from soluble cell extract of Neuronal nitric oxide synthase and partially purified by DEAE-sepharose chromatography
ENDPOINT: pIC50
Units for pIC50: none; it is -log10 of a concentration expressed in mol/L.

Please review the entries below; each comes with its answer.
- CC1CCN=C(N)CC1 (stereo not drawn): 4.96
- C=CCC1CCCCN=C1N (stereo not drawn): 4.80

# next compound below
**Query** Fill in pIC50 for record CCC1CCCCN=C1N (stereo not drawn)
**Result** 5.62

###

Molecular target: Nitric oxide synthase 1 (Homo sapiens, UniProt P29475)
Sequence (P29475 whole entry): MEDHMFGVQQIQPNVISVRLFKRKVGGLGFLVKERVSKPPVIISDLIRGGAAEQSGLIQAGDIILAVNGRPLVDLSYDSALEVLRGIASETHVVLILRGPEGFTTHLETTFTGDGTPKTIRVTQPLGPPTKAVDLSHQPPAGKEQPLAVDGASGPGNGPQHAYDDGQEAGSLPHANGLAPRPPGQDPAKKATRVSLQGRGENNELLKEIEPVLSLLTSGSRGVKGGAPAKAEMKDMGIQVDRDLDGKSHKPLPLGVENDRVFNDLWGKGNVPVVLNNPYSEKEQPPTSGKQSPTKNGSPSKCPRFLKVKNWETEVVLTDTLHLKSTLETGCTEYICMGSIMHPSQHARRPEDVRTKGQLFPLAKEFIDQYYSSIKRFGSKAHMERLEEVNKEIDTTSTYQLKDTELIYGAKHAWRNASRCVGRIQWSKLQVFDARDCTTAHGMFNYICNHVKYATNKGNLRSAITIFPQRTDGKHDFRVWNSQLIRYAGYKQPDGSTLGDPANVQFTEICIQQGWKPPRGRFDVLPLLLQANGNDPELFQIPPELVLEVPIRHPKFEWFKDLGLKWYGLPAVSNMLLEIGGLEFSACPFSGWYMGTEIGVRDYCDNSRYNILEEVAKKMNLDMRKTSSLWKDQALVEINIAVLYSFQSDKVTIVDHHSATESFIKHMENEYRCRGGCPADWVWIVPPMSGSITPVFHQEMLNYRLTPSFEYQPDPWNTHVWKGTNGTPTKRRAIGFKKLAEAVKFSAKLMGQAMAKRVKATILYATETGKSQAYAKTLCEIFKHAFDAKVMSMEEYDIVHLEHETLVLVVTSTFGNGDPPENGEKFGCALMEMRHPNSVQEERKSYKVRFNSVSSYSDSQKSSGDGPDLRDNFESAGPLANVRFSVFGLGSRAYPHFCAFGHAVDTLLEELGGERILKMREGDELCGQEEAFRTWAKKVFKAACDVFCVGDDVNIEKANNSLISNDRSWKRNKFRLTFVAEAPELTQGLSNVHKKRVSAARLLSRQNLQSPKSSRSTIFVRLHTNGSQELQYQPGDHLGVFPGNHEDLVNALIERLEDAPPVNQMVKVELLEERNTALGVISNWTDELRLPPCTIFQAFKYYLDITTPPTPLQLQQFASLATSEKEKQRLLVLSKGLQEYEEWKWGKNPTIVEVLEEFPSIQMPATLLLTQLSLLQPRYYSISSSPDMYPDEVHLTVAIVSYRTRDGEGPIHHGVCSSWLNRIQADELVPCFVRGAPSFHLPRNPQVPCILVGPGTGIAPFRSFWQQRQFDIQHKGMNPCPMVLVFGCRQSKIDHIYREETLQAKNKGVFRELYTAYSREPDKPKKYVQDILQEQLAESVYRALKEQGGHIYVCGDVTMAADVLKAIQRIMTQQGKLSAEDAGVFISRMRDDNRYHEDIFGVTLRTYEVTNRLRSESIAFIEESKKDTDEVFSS
Assay: Inhibitory activity evaluated from soluble cell extract of human Neuronal nitric oxide synthase and partially purified by DEAE-sepharose chromatography
ENDPOINT: pIC50
// pIC50: -log10(molar conc.)

- CCC(CC)CC1CCCCC(N)=N1 (configuration not stated): 5.27

Pending compound:
**Query** Identify measured pIC50 corresponding to NC1=NC(c2ccccc2)CCCC1 (configuration not stated)
**Result** 5.18

###

Target: Nitric oxide synthase 3 (Homo sapiens)
Sequence (P29474 whole entry): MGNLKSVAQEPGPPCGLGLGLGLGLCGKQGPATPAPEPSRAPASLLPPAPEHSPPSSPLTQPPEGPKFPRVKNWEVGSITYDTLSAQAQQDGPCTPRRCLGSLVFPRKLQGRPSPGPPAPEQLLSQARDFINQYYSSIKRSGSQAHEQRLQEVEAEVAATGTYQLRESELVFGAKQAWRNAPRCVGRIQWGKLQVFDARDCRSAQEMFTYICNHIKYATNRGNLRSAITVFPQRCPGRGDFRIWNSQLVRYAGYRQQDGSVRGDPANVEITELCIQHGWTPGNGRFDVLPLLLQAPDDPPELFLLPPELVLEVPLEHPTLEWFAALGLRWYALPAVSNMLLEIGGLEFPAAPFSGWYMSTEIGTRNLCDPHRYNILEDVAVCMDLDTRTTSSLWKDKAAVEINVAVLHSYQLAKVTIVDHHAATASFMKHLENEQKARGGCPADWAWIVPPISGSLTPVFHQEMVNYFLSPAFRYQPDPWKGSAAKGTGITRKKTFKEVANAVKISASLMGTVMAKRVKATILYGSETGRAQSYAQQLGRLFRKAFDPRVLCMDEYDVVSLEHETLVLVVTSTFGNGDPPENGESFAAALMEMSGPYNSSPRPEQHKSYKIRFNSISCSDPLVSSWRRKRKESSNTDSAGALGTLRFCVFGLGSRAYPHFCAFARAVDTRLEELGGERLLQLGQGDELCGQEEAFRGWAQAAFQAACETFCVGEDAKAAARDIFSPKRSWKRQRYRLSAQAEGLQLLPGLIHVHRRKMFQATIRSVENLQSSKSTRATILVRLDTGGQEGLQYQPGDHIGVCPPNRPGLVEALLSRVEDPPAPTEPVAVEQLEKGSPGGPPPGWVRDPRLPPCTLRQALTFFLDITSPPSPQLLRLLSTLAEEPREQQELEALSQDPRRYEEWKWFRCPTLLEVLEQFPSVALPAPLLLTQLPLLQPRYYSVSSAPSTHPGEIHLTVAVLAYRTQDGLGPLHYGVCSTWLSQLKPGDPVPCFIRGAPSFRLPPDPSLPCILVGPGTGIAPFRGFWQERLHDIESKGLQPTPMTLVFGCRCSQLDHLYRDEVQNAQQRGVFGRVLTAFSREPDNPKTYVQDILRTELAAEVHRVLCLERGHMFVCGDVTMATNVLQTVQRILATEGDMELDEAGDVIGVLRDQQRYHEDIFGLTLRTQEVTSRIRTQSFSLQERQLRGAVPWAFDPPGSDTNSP
ENDPOINT: pIC50
Schema: pIC50 number; meaning minus log10 of the concentration expressed in molar units.

Below, 3 compounds whose answers are already recorded.
- CCC(CC)CC1CCCCC(N)=N1 (centres undefined): 3.18
- CC1CCN=C(N)CC1 (centres undefined): 4.41
- C=CCC1CCCCC(N)=N1 (centres undefined): 4.68

Let us move to another entry and its pIC50.
**Query** Give pIC50 for this entry on Nitric oxide synthase 3 (Homo sapiens): C=CCC1CCCCN=C1N (centres undefined)
**Result** 3.42

###

Molecular target: Nitric oxide synthase, inducible (Mus musculus, UniProt P29477)
Sequence (P29477 whole entry): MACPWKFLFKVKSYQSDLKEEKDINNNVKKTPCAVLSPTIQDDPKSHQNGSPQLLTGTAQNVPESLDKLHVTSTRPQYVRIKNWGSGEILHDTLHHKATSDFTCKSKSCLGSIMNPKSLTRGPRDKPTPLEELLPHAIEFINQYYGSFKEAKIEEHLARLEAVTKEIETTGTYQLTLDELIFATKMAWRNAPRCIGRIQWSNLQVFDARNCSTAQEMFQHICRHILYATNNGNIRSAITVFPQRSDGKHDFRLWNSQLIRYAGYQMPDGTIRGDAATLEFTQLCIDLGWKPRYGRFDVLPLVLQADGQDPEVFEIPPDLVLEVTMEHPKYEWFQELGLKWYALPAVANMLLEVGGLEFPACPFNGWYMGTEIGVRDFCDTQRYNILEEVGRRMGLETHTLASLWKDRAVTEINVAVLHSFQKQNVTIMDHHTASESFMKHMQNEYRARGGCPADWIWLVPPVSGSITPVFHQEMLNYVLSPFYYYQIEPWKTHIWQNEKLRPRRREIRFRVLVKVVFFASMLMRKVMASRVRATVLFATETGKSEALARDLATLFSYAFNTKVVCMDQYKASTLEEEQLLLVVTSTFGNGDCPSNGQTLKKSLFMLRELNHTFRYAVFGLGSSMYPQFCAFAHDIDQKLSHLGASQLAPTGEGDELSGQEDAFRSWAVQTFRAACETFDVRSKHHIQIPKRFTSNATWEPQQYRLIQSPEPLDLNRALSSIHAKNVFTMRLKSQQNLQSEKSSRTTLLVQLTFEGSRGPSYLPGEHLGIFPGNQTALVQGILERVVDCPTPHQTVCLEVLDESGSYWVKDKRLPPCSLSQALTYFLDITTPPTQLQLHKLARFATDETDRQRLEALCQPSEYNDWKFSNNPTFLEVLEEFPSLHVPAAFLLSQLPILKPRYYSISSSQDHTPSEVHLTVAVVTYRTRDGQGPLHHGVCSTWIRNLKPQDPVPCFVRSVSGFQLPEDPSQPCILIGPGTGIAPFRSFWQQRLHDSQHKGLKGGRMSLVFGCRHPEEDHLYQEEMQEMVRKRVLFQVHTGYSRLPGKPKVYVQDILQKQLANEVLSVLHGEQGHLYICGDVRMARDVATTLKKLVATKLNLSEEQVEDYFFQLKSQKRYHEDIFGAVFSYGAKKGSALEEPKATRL
Experiment: The ability of compound to inhibit mouse Inducible nitric oxide synthase in LPS stimulated mouse RAW cells was determined
pIC50 listing for selected compounds.
Remember the convention: pIC50 equals -log10 of concentration in molar.

// solved cases for pIC50 follow
• CC1CCN=C(N)CC1 (stereo unspecified) = 4.62
• CCCCC1CCCCC(N)=N1 (stereo unspecified) = 5.80

**Query** Quick one: give measured pIC50 for NC1=NC(c2ccccc2)CCCC1 (stereo unspecified)
**Result** 4.51

**Query** Specify pIC50 for C=CCC1CCCCN=C1N (stereo unspecified) and stop.
**Result** 4.72

**Query** Consider the compound CCC(CC)CC1CCCCC(N)=N1 (stereo unspecified) and give its recorded pIC50.
**Result** 5.48

**Query** Report pIC50, nothing else, for this compound: `NC1=NCCCCC1`
**Result** 4.27

###

Biological target: Nitric oxide synthase, inducible (Homo sapiens)
Sequence (P35228 whole entry): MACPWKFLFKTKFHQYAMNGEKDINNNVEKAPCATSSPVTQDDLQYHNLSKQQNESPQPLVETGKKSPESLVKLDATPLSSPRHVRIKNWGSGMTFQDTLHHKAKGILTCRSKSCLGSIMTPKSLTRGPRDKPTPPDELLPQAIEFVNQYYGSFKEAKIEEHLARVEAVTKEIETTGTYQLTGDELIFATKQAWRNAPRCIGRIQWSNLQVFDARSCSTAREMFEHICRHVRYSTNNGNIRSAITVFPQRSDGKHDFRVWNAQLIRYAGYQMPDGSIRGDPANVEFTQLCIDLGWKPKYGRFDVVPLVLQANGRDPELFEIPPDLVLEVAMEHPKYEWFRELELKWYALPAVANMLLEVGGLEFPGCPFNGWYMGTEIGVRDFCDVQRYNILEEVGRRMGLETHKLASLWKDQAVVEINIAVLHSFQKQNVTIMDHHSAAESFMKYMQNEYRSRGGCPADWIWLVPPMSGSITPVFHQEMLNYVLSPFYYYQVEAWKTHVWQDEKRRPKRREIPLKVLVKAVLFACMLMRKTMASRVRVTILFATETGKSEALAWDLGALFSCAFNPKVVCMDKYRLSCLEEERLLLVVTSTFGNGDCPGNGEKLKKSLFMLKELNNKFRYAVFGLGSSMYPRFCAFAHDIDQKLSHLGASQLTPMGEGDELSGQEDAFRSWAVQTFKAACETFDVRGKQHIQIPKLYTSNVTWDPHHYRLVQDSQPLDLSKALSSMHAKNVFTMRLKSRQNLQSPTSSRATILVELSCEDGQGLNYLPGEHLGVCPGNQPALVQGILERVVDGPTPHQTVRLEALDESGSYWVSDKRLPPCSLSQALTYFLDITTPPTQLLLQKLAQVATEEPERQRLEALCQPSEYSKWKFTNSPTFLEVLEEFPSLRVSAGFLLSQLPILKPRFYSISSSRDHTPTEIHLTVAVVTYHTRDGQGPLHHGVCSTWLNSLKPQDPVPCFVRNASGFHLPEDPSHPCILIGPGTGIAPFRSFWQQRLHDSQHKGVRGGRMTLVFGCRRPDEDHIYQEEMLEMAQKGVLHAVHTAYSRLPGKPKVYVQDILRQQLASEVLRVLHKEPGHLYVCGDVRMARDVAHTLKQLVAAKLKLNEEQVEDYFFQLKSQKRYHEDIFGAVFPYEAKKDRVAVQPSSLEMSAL
ENDPOINT: IC50 (nM)
Expressed in nM, but write only the number.

**Query** For Nitric oxide synthase, inducible (Homo sapiens), give IC50 of the listed molecule: CCCCC1CCCCC(N)=N1 (stereo unspecified)
**Result** 500

###

Reported IC50 values follow for various molecules
Target: Nitric oxide synthase 1 (Homo sapiens, UniProt P29475)
Assay: Inhibitory activity evaluated from soluble cell extract of human nNeuronal nitric oxide synthase and partially purified by DEAE-sepharose chromatography
Use nM as the unit, but write only the number.

- CCCCC1CCCCC(N)=N1 (configuration not stated): 850

**Query** Report its IC50 with Nitric oxide synthase 1 (Homo sapiens, UniProt P29475) as the test system: `C[C@@H]1CCCC(N)=NC1`
**Result** 3800
